target: human CB2 cannabinoid receptor (Homo sapiens (Human)); assay: Radioligand binding assay, CB2 ([3H]-CP 55,940 competition); details: plasma membranes of HEK 293 EBNA cells transfected with human CB2; 0.72 nM [3H]-CP 55,940; NA = not active
Sequence (P34972 whole entry): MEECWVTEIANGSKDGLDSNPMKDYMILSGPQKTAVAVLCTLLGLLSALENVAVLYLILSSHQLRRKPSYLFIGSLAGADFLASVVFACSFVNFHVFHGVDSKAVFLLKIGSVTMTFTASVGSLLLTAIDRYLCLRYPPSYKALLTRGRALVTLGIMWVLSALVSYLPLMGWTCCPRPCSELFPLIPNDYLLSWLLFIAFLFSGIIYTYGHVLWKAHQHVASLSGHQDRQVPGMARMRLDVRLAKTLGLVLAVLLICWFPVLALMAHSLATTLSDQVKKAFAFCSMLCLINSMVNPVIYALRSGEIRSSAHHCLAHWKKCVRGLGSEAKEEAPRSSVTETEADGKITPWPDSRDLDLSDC
observation type: pIC50
Answers are plain numbers, as −log10 of the molar value.

# smiles code, pIC50
records = [
    ("CCCNc1cnn(C2CCCCC2)c(=O)c1Cl", 5.00),
    ("CCCn1cc2c(=O)n(C3CC(C)(C)CC(C)(C)C3)ncc2n1", 6.62),
]

// below: pIC50 requested for another compound
Query: Notebook entry, human CB2 cannabinoid receptor (Homo sapiens (Human)) assay: pIC50 of CNc1cnn(C2CC(C)(C)CC(C)(C)C2)c(=O)c1 = ?
Reply: 5.68
